Give Km for every item shown.
Tested on: Enterococcus
EXPERIMENTAL_DETAILS: Activity of Enterococcus APH(3')-3a
Report the value in µM with no unit label.

// query Give the measured Km of `CN(C)Cc1cn(C[C@H]2O[C@@H](O[C@@H]3[C@@H](O)[C@H](N)C[C@H](N)[C@H]3O[C@H]3O[C@H](CN)[C@@H](O)[C@H](O)[C@H]3N)[C@H](O)[C@@H]2O[C@H]2O[C@@H](CN)[C@@H](O)[C@H](O)[C@H]2N)nn1` .
// result 120

// query Record: `NCCCC[C@@H](N)C(=O)NC[C@H]1O[C@@H](O[C@@H]2[C@@H](O)[C@H](N)C[C@H](N)[C@H]2O[C@H]2O[C@H](CN)[C@@H](O)[C@H](O)[C@H]2N)[C@H](O)[C@@H]1O[C@H]1O[C@@H](CN)[C@@H](O)[C@H](O)[C@H]1N`
// result 75

---

Test system: Enterococcus
EXPERIMENTAL_DETAILS: Activity of Enterococcus APH(3')-3a
Give Km for every item shown.
Report the value in µM with no unit label.

// query Give the measured Km of `NC[C@@H]1O[C@H](O[C@H]2[C@@H](O)[C@H](O[C@@H]3[C@@H](O)[C@H](N)C[C@H](N)[C@H]3O[C@H]3O[C@H](CN)[C@@H](O)[C@H](O)[C@H]3N)O[C@@H]2Cn2cc(CNC(=O)C3CCNCC3)nn2)[C@H](N)[C@@H](O)[C@@H]1O` .
// result 171

// query Record: `NCc1cn(C[C@H]2O[C@@H](O[C@@H]3[C@@H](O)[C@H](N)C[C@H](N)[C@H]3O[C@H]3O[C@H](CN)[C@@H](O)[C@H](O)[C@H]3N)[C@H](O)[C@@H]2O[C@H]2O[C@@H](CN)[C@@H](O)[C@H](O)[C@H]2N)nn1`
// result 111

// query Record: NC[C@@H]1O[C@H](O[C@H]2[C@@H](O)[C@H](O[C@@H]3[C@@H](O)[C@H](N)C[C@H](N)[C@H]3O[C@H]3O[C@H](CN)[C@@H](O)[C@H](O)[C@H]3N)O[C@@H]2CO)[C@H](N)[C@@H](O)[C@@H]1O [FRAMYCETIN]
// result 6

// query Record: `NC[C@@H]1O[C@H](O[C@H]2[C@@H](O)[C@H](O[C@@H]3[C@@H](O)[C@H](N)C[C@H](N)[C@H]3O[C@H]3O[C@H](CN)[C@@H](O)[C@H](O)[C@H]3N)O[C@@H]2CNC(=O)c2cc(-c3ccccc3)nc3ccccc23)[C@H](N)[C@@H](O)[C@@H]1O`
// result 400

---

Give Vmax for every item shown.
Tested on: Enterococcus
EXPERIMENTAL_DETAILS: Activity of Enterococcus APH(3')-3a
Report the value in µmol/min/mg with no unit label.

// query Give the measured Vmax of NCC[C@H](O)C(=O)N[C@@H]1C[C@H](N)[C@@H](O[C@H]2O[C@H](CN)[C@@H](O)[C@H](O)[C@H]2O)[C@H](O)[C@H]1O[C@H]1O[C@H](CO)[C@@H](O)[C@H](N)[C@H]1O [AMIKACIN] .
// result 2.75

// query Record: `NCCCC[C@@H](N)C(=O)NC[C@H]1O[C@@H](O[C@@H]2[C@@H](O)[C@H](N)C[C@H](N)[C@H]2O[C@H]2O[C@H](CN)[C@@H](O)[C@H](O)[C@H]2N)[C@H](O)[C@@H]1O[C@H]1O[C@@H](CN)[C@@H](O)[C@H](O)[C@H]1N`
// result 0.7

// query Record: `CCCCCCc1cn(C[C@H]2O[C@@H](O[C@@H]3[C@@H](O)[C@H](N)C[C@H](N)[C@H]3O[C@H]3O[C@H](CN)[C@@H](O)[C@H](O)[C@H]3N)[C@H](O)[C@@H]2O[C@H]2O[C@@H](CN)[C@@H](O)[C@H](O)[C@H]2N)nn1`
// result 0.75

// query Record: `NC[C@@H]1O[C@H](O[C@H]2[C@@H](O)[C@H](O[C@@H]3[C@@H](O)[C@H](N)C[C@H](N)[C@H]3O[C@H]3O[C@H](CN)[C@@H](O)[C@H](O)[C@H]3N)O[C@@H]2CNC(=O)CCC(=O)O)[C@H](N)[C@@H](O)[C@@H]1O`
// result 0.86
